Data origin, for the record: patent US20250276075A1

- TESTED_TARGET: Axl (UniProt P30530)
- Sequence (P30530 26-451 limits assumed): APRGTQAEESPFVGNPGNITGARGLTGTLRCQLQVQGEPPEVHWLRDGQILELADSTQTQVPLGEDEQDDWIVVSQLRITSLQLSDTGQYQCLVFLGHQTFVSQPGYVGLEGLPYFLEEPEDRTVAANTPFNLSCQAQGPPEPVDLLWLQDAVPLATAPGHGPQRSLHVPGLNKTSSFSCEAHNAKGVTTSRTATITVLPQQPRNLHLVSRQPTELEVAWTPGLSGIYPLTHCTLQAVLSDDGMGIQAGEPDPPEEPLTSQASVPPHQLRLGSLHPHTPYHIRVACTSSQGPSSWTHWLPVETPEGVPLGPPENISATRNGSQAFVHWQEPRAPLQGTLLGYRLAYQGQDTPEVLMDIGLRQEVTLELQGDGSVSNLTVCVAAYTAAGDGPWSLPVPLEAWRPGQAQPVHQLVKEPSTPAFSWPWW
- PROTOCOL_SUMMARY: ELISA, 1:9 dilution
Quick rule for you: Affinity ELISA CPE mutant ratio (1:9, pH 6.0/7.4) under 2 gets YES, anything else gets NO.

Solved cases (3 shown):
>  <BINDER>
LC-P095H (antibody, V domains shown) VH: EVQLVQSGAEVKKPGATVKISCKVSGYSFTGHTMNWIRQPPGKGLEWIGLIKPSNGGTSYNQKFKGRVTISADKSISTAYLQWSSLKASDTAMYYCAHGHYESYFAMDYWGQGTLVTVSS VL: DIQMTQSPSSLSASVGDRVTITCKASQDVSSAVAWYQQKPGQAPRLLIYWASTRHTGVPSRFSGSGSGTEFTLTISSLQPDDFATYYCQEHFSTHLTFGQGTKVEIK

>  <LABEL_CLASS>
NO

$$$$
>  <BINDER>
HC-A106G (antibody, V domains shown) VH: EVQLVQSGAEVKKPGATVKISCKVSGYSFTGHTMNWIRQPPGKGLEWIGLIKPSNGGTSYNQKFKGRVTISADKSISTAYLQWSSLKASDTAMYYCAHGHYESYFGMDYWGQGTLVTVSS VL: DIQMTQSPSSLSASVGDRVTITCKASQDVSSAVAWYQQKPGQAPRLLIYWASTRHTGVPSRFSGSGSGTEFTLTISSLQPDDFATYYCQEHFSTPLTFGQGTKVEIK

>  <LABEL_CLASS>
NO

$$$$
>  <BINDER>
HC-M107F (antibody, V domains shown) VH: EVQLVQSGAEVKKPGATVKISCKVSGYSFTGHTMNWIRQPPGKGLEWIGLIKPSNGGTSYNQKFKGRVTISADKSISTAYLQWSSLKASDTAMYYCAHGHYESYFAFDYWGQGTLVTVSS VL: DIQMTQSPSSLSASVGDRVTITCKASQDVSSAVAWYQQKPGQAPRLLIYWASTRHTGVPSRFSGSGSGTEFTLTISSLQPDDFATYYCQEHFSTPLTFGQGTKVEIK

>  <LABEL_CLASS>
YES

$$$$

**Q:** Decide: Affinity ELISA CPE mutant ratio (1:9, pH 6.0/7.4) of HC-W110D (antibody, V domains shown) VH: EVQLVQSGAEVKKPGATVKISCKVSGYSFTGHTMNWIRQPPGKGLEWIGLIKPSNGGTSYNQKFKGRVTISADKSISTAYLQWSSLKASDTAMYYCAHGHYESYFAMDYDGQGTLVTVSS VL: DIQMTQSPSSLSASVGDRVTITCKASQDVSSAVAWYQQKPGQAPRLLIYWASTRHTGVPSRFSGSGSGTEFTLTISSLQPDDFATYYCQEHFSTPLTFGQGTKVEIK strictly below 2?
**A:** YES

**Q:** Hello, I'm reviewing records and need to know if Affinity ELISA CPE mutant ratio (1:9, pH 6.0/7.4) of HC-E102V (antibody, V domains shown) VH: EVQLVQSGAEVKKPGATVKISCKVSGYSFTGHTMNWIRQPPGKGLEWIGLIKPSNGGTSYNQKFKGRVTISADKSISTAYLQWSSLKASDTAMYYCAHGHYVSYFAMDYWGQGTLVTVSS VL: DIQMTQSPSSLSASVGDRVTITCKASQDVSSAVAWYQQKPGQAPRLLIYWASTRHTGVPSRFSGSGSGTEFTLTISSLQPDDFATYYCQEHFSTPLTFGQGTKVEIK is below 2. Could you check?
**A:** NO
